System: KM12
Experiment: NCI tumour cell line growth inhibition, 48 h
Calls of active or inactive are those of the source. Cut-off read from the data, not from the text of the source: active = GI50 up to about 1.1 µM and inactive = higher.
Classes used: Yes for active, No for inactive

[[record]]
molecule = "N#C/C(=C\\c1ccc(O)cc1O)C(N)=O"
cat = "No"

[[record]]
molecule = "CCNC12CCC(C1)C(C)(C)C2=O (stereo unspecified)"
cat = "No"

[[record]]
molecule = "Cn1cc(C(=O)c2ccccc2)cc(C(=O)c2ccccc2)c1=O"
cat = "No"

[[record]]
molecule = "O=C(CC(c1ccccc1)C(C(=O)c1ccncc1)C(CC(=O)c1ccncc1)c1ccccc1)c1ccncc1 (stereo unspecified)"
cat = "No"

[[record]]
molecule = "CCOC(=O)CCCO"
cat = "No"

[[record]]
molecule = "COC(=O)c1c(C)ccc2c(O)c3c(cc12)C(=O)c1c2c(cc(O)c1C3=O)C1(C)OC(C)(O2)C(O)C(N(C)C)C1O (stereo unspecified)"
cat = "No"

[[record]]
molecule = "O=C1CSC(c2cccc(Cl)c2)N1c1ccc(-c2ccc(-n3c(-c4ccccc4)nc4ccccc4c3=O)cc2)cc1 (stereo unspecified)"
cat = "No"

[[record]]
molecule = "c1ccc2c(c1)CC1=C(O2)c2ccccc2OC1"
cat = "No"

[[record]]
molecule = "COc1ccc(/C=N/NC(=O)NCCCN(C)C)cc1"
cat = "No"

[[record]]
molecule = "O=C1OC(=O)c2c1c(-c1ccccc1)nc1ccccc21"
cat = "No"

[[record]]
molecule = "COc1ccc2c(c1)C(=O)C1CCC(=O)N1C2c1ccc2c(c1)OCO2 (stereo unspecified)"
cat = "No"

[[record]]
molecule = "O=NN(CCCl)C(=O)NC1CCSc2ccccc21 (stereo unspecified)"
cat = "No"

[[record]]
molecule = "CCOC(=O)[C@H]1Nc2c(cccc2[N+](=O)[O-])C2c3ccccc3CC21 (stereo partly specified)"
cat = "No"

[[record]]
molecule = "CC(C)=CCN1c2ccccc2[C@@]2(CC=C(C)C)CCN(C)[C@@H]12 [(+)-DEBROMOFLUSTRAMINE B]"
cat = "No"

[[record]]
molecule = "Cc1sc(N)c(S(=O)(=O)c2ccccc2)c1C"
cat = "No"

[[record]]
molecule = "CCSC(=O)C1(C)OC2CCCCC2C1=O (stereo unspecified)"
cat = "No"

[[record]]
molecule = "CCC12CCCN(Cc3ccccc3)C1c1c(n(C)c3ccccc13)[C@H](C(=O)OC)C2 (stereo partly specified)"
cat = "No"

[[record]]
molecule = "C#CCn1c(=O)c(C)cn(/C(=C\\C(=O)OCC)C(=O)OCC)c1=O"
cat = "No"

[[record]]
molecule = "C=C1C(=O)OC2CC(C)C(C(O)CC(C)O)=CCC12 (stereo unspecified)"
cat = "No"

[[record]]
molecule = "CN1C(=O)C(=CNc2ccc(Cl)cc2Cl)C(=O)N(C)C1=O"
cat = "No"

[[record]]
molecule = "O=C1NC2(O)c3ccccc3C(=O)C2(O)N1c1ccccc1 (stereo unspecified)"
cat = "No"

[[record]]
molecule = "CCOC(=O)c1[nH]c2nc(SC)nc(Nc3ccccc3Cl)c2c1N"
cat = "No"

[[record]]
molecule = "Cc1cc(Cl)ccc1NC(=O)C(=O)C(C(=O)c1ccccc1)C1OC(=O)c2ccccc21 (stereo unspecified)"
cat = "No"

[[record]]
molecule = "CC1C(O)C2(Oc3cc4c(c5c3[C@@H](CC5O)[C@H]2C)CCC2Cc3nc5c(nc3C[C@@]42C)CC2CCC3C4=C[C@H]6O[C@@]7(O[C@@](C)(CO)C[C@@H]7O)C(C)[C@@]6(O)[C@]4(C)[C@@H](O)CC3[C@]2(C)C5)OC1(C)C (stereo partly specified)"
cat = "Yes"

[[record]]
molecule = "C[C@]12C(=O)C=CCC1=CC[C@@H]1[C@@H]2[C@H]2CC3(O)C(=O)O[C@@]4(C)[C@H]5C[C@@]6(C)[C@@H]7[C@@]2(O)[C@]1(OC[C@H]6C(=O)O5)O[C@]734 (stereo partly specified)"
cat = "No"

[[record]]
molecule = "CC(C)c1ccccc1NC(=O)C(=O)Cc1nc2ccccc2s1"
cat = "No"

[[record]]
molecule = "COC(=O)C(=Cc1cc(OC)c(OC)c(OC)c1-c1cc2c(cc1C1(C)OCCS1)OCO2)C(=O)OC (stereo unspecified)"
cat = "No"

[[record]]
molecule = "CC(=O)/C(=N\\O)C(=O)NCCc1ccccc1"
cat = "No"

[[record]]
molecule = "CC(C1=CC=C2[C@@H]3CCC4CC(N(C)C)CC[C@]4(C)C3CC[C@]12C)N(C)C=O (stereo partly specified)"
cat = "No"

[[record]]
molecule = "O=[N+]([O-])c1ccc(C(O)/C(=N/O)c2nc3ccc(Cl)cc3nc2O)cc1 (stereo unspecified)"
cat = "No"

[[record]]
molecule = "O=c1n(/N=C/c2ccccc2)c(=O)n2n1C1C=CC2CC1"
cat = "No"

